Experiment: Metabolic stability in human liver microsomes assessed as half life at 1 uM measured upto 60 mins in presence of NADPH regenerating system by LC-MS/MS analysis
Assay type: ADME, Microsome
quantity.kind: half-life at 1 µM (min)
Answers are plain numbers, in min.

Request: Note down half-life at 1 µM recorded for N#Cc1cccc(CN2CCC=C(C(=O)NCc3ccc(C(F)(F)F)cc3)C2)c1
Result: 6.1

----------
Assay: Half life in Sprague-Dawley rat at 10 mg/kg, iv by LC-MS/MS analysis
Type: ADME, organism-based
Conditions: in vivo
quantity.kind: half-life (h)
Numbers only, in h.

Request: Identify half-life associated with the compound N#Cc1cccc(CN2CCC=C(C(=O)NCc3ccc(C(F)(F)F)cc3)C2)c1
Result: 4.8
